From: patent US20260098037A1

Target: UniProt P43220
Sequence (P43220 24-463): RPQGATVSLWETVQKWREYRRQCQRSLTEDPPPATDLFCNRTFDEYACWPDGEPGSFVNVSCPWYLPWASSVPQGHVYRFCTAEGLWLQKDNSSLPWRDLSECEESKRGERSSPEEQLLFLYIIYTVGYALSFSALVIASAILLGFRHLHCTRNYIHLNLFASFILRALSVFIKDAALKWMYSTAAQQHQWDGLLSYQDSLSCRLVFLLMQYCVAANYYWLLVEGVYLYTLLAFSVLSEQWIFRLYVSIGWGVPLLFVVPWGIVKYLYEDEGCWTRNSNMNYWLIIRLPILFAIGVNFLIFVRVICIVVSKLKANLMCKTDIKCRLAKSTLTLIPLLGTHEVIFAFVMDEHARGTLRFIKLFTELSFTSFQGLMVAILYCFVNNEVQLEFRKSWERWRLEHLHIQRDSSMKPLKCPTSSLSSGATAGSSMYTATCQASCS
Experiment: In vitro cellular cAMP expression activity assay (CRE-luciferase reporter)
Settings: HEK293/CRE-Luc/GLP1R cells, 6 h incubation, luciferase luminescence; read-out: HEK293/CRE-Luc/GLP-1R EC50
pEC50: −log10 of the molar value.
Recorded measurements of pEC50, one per entry

Cc1cc(-n2nc3c(c2-n2ccn(-c4ccc5nc6n(c5c4)CCN(C)C6)c2=O)[C@H](C)N(C(=O)c2cc4cc([C@H]5CCOC(C)(C)C5)ccc4n2[C@@]2(c4noc(=O)[nH]4)C[C@@H]2C)CC3)cc(C)c1F > 9.30

We now examine a further molecule.
Provide pEC50, system UniProt P43220, entry Cc1cc(-n2nc3c(c2-n2ccn(-c4ccc5c(c4)N(C4CC4)C(=O)C54CC4)c2=O)[C@H](C)N(C(=O)c2cc4cc([C@H]5CCOC(C)(C)C5)ccc4n2[C@@]2(c4noc(=O)[nH]4)C[C@@H]2C)CC3)cc(C)c1F > 9.30

----------
Test: In vitro stability assay in liver microsome (MLM)
Assay type: in vitro ADME, mouse
Details: liver microsome 0.5 mg/mL, NADPH+MgCl2, PBS pH 7.4, 1 h
measuredProperty: MLM Remaining (T = 60 min) (%)

Cc1cc(-n2nc3c(c2-n2ccn(-c4ccc5c(c4F)N(C)C(=O)C54CC4)c2=O)[C@H](C)N(C(=O)c2cc4cc([C@H]5CCOC(C)(C)C5)ccc4n2[C@@]2(c4noc(=O)[nH]4)C[C@@H]2C)CC3)cc(C)c1F 90.40
C[C@H]1c2c(nn(-c3ccc(F)c(C4CC4)c3)c2-n2ccn(-c3ccc4c(c3)N(C)C(=O)C43CC3)c2=O)CCN1C(=O)c1cc2cc([C@H]3CCOC(C)(C)C3)ccc2n1[C@@]1(c2noc(=O)[nH]2)C[C@@H]1C 91.41
Cc1cc(-n2nc3c(c2-n2ccn(-c4ccc5c(c4)C4(CC4)C(=O)N5C)c2=O)[C@H](C)N(C(=O)c2cc4cc([C@H]5CCOC(C)(C)C5)ccc4n2C2(c4noc(=O)[nH]4)CC2)CC3)cc(C)c1F 95.46
[2H]C([2H])([2H])N1C(=O)C2(CC2)c2ccc(-n3ccn(-c4c5c(nn4-c4cc(C)c(F)c(C)c4)CCN(C(=O)c4cc6cc([C@H]7CCOC(C)(C)C7)ccc6n4[C@@]4(c6noc(=O)[nH]6)C[C@@H]4C)[C@H]5C)c3=O)cc21 84.44
Cc1cc(-n2nc3c(c2-n2ccn(-c4ccc5c(c4)N(C)C(=O)C54CC4)c2=O)[C@H](C)N(C(=O)c2cc4cc([C@H]5CCOC(C)(C)C5)ccc4n2C2(c4noc(=O)[nH]4)CC2)CC3)cc(C)c1F 77.17
Cc1cc(-n2nc3c(c2-n2ccn(-c4ccc5c(c4)C4(CC4)C(=O)N5C4CC4)c2=O)[C@H](C)N(C(=O)c2cc4cc([C@H]5CCOC(C)(C)C5)ccc4n2[C@@]2(c4noc(=O)[nH]4)C[C@@H]2C)CC3)cc(C)c1F 90.13

----------
Test: In vivo pharmacokinetic evaluation in mice
Details: mouse, plasma, po; ICR mice, ig 3 mg/kg vs iv 0.5 mg/kg; read-out: Absolute bioavailability F
Protocol: ICR mice of 18-22 g were randomized into 4 groups of 9 mice after 3-5 days of acclimatization. […] The test animals (ICR mice) were fasted from 12 h pre-dose to 4 h post-dose, and given free access to water throughout the study. […]
measuredProperty: bioavailability (%)

molecule	measuredProperty	unitText	recordedValue
C[C@H]1c2c(nn(-c3ccc(F)c(C4CC4)c3)c2-n2ccn(-c3ccc4c(c3)N(C)C(=O)C43CC3)c2=O)CCN1C(=O)c1cc2cc([C@H]3CCOC(C)(C)C3)ccc2n1[C@@]1(c2noc(=O)[nH]2)C[C@@H]1C	bioavailability	%	33.5
[2H]C([2H])([2H])N1C(=O)C2(CC2)c2cc(-n3ccn(-c4c5c(nn4-c4cc(C)c(F)c(C)c4)CCN(C(=O)c4cc6cc([C@H]7CCOC(C)(C)C7)ccc6n4[C@@]4(c6noc(=O)[nH]6)C[C@@H]4C)[C@H]5C)c3=O)ccc21	bioavailability	%	43.9
Cc1cc(-n2nc3c(c2-n2ccn(-c4ccc5c(c4F)N(C)C(=O)C54CC4)c2=O)[C@H](C)N(C(=O)c2cc4cc([C@H]5CCOC(C)(C)C5)ccc4n2[C@@]2(c4noc(=O)[nH]4)C[C@@H]2C)CC3)cc(C)c1F	bioavailability	%	37.8
Cc1cc(-n2nc3c(c2-n2ccn(-c4ccc5c(c4)C4(CC4)C(=O)N5C4CC4)c2=O)[C@H](C)N(C(=O)c2cc4cc([C@H]5CCOC(C)(C)C5)ccc4n2[C@@]2(c4noc(=O)[nH]4)C[C@@H]2C)CC3)cc(C)c1F	bioavailability	%	33.7
Cc1cc(-n2nc3c(c2-n2ccn(-c4ccc5c(c4)N(C)C(=O)C54CC4)c2=O)[C@H](C)N(C(=O)c2cc4cc(C5CCOC(C)(C)C5)ccc4n2[C@@]2(c4noc(=O)[nH]4)C[C@@H]2C)CC3)cc(C)c1F (single isomer, unassigned)	bioavailability	%	35.2

----------
Assay: In vivo pharmacokinetic evaluation in mice
Conditions: mouse; ICR mice, iv, dose 0.5 mg/kg, plasma; read-out: AUC(0-24)
measuredProperty: AUC(0-t) (ng·h/mL)

compound	measuredProperty	recordedValue
[2H]C([2H])([2H])N1C(=O)C2(CC2)c2cc(-n3ccn(-c4c5c(nn4-c4cc(C)c(F)c(C)c4)CCN(C(=O)c4cc6cc([C@H]7CCOC(C)(C)C7)ccc6n4[C@@]4(c6noc(=O)[nH]6)C[C@@H]4C)[C@H]5C)c3=O)ccc21 [Compound 2]	AUC(0-t)	1820
Cc1cc(-n2nc3c(c2-n2ccn(-c4ccc5c(c4)N(C)C(=O)C54CC4)c2=O)[C@H](C)N(C(=O)c2cc4cc(C5CCOC(C)(C)C5)ccc4n2[C@@]2(c4noc(=O)[nH]4)C[C@@H]2C)CC3)cc(C)c1F (single isomer, unassigned) [Compound 5]	AUC(0-t)	2220
Cc1cc(-n2nc3c(c2-n2ccn(-c4ccc5c(c4)C4(CC4)C(=O)N5C4CC4)c2=O)[C@H](C)N(C(=O)c2cc4cc([C@H]5CCOC(C)(C)C5)ccc4n2[C@@]2(c4noc(=O)[nH]4)C[C@@H]2C)CC3)cc(C)c1F [Compound 3]	AUC(0-t)	2360

----------
Test: In vivo pharmacokinetic evaluation in mice
Conditions: mouse, plasma, po; ICR mice, ig, dose 3 mg/kg; read-out: t½ (converted)
Procedure: ICR mice of 18-22 g were randomized into 4 groups of 9 mice after 3-5 days of acclimatization. […] The test animals (ICR mice) were fasted from 12 h pre-dose to 4 h post-dose, and given free access to water throughout the study. […]
measuredProperty: half-life (h)

Worked examples follow.
compound	recordedValue
Cc1cc(-n2nc3c(c2-n2ccn(-c4ccc5c(c4)C4(CC4)C(=O)N5C4CC4)c2=O)[C@H](C)N(C(=O)c2cc4cc([C@H]5CCOC(C)(C)C5)ccc4n2[C@@]2(c4noc(=O)[nH]4)C[C@@H]2C)CC3)cc(C)c1F [Compound 3]	4.15
Cc1cc(-n2nc3c(c2-n2ccn(-c4ccc5c(c4)N(C)C(=O)C54CC4)c2=O)[C@H](C)N(C(=O)c2cc4cc(C5CCOC(C)(C)C5)ccc4n2[C@@]2(c4noc(=O)[nH]4)C[C@@H]2C)CC3)cc(C)c1F (single isomer, unassigned) [Compound 5]	4.27
C[C@H]1c2c(nn(-c3ccc(F)c(C4CC4)c3)c2-n2ccn(-c3ccc4c(c3)N(C)C(=O)C43CC3)c2=O)CCN1C(=O)c1cc2cc([C@H]3CCOC(C)(C)C3)ccc2n1[C@@]1(c2noc(=O)[nH]2)C[C@@H]1C [Compound 18]	4.29

A = Cc1cc(-n2nc3c(c2-n2ccn(-c4ccc5c(c4F)N(C)C(=O)C54CC4)c2=O)[C@H](C)N(C(=O)c2cc4cc([C@H]5CCOC(C)(C)C5)ccc4n2[C@@]2(c4noc(=O)[nH]4)C[C@@H]2C)CC3)cc(C)c1F [Compound 14]
B = [2H]C([2H])([2H])N1C(=O)C2(CC2)c2cc(-n3ccn(-c4c5c(nn4-c4cc(C)c(F)c(C)c4)CCN(C(=O)c4cc6cc([C@H]7CCOC(C)(C)C7)ccc6n4[C@@]4(c6noc(=O)[nH]6)C[C@@H]4C)[C@H]5C)c3=O)ccc21 [Compound 2]
Between the entries labeled A and B , whose measured half-life is lower? Pick one; state its label. B

----------
Test: In vivo pharmacokinetic evaluation in mice
Conditions: mouse, po; ICR mice, ig, dose 3 mg/kg, plasma
Protocol: ICR mice of 18-22 g were randomized into 4 groups of 9 mice after 3-5 days of acclimatization. […] The test animals (ICR mice) were fasted from 12 h pre-dose to 4 h post-dose, and given free access to water throughout the study. […]
measuredProperty: AUC(0-inf) (ng·h/mL)

compound	measuredProperty	recordedValue
Cc1cc(-n2nc3c(c2-n2ccn(-c4ccc5c(c4)N(C)C(=O)C54CC4)c2=O)[C@H](C)N(C(=O)c2cc4cc(C5CCOC(C)(C)C5)ccc4n2[C@@]2(c4noc(=O)[nH]4)C[C@@H]2C)CC3)cc(C)c1F (single isomer, unassigned) [Compound 5]	AUC(0-inf)	4780
C[C@H]1c2c(nn(-c3ccc(F)c(C4CC4)c3)c2-n2ccn(-c3ccc4c(c3)N(C)C(=O)C43CC3)c2=O)CCN1C(=O)c1cc2cc([C@H]3CCOC(C)(C)C3)ccc2n1[C@@]1(c2noc(=O)[nH]2)C[C@@H]1C [Compound 18]	AUC(0-inf)	6030
Cc1cc(-n2nc3c(c2-n2ccn(-c4ccc5c(c4F)N(C)C(=O)C54CC4)c2=O)[C@H](C)N(C(=O)c2cc4cc([C@H]5CCOC(C)(C)C5)ccc4n2[C@@]2(c4noc(=O)[nH]4)C[C@@H]2C)CC3)cc(C)c1F [Compound 14]	AUC(0-inf)	4910
